# EXPERIMENTAL_DETAILS: Half life in human plasma
# Assay type: ADME, cell-free
Residues, ends and D or L forms follow the SMILES beside them.
half-life of 40 min or higher: true (1). Under 40 min: false (0).

Below, 5 compounds whose answers are already recorded.
Q: For this compound, is measured half-life 40 min or higher? `O=C(OCc1ccccc1)[C@H]1O[C@@H](Oc2cc3oc(-c4ccc(O)cc4)cc(=O)c3c(O)c2O)[C@H](O)[C@@H](O)[C@@H]1O`
Ans: true (1)

Q: For this compound, is measured half-life 40 min or higher? COC(=O)[C@H](Cc1ccccc1)NC(=O)CN.Cl (H-Gly-Phe-OMe)
Ans: false (0)

Q: For this compound, is measured half-life 40 min or higher? `CCCSc1ccc2c(c1)nc(NC(=O)OC)n2C(=O)OCC`
Ans: false (0)

Q: For this compound, is measured half-life 40 min or higher? `COc1ccc2cc([C@H](C)C(=O)OCCOCCO)ccc2c1`
Ans: false (0)

Q: For this compound, is measured half-life 40 min or higher? `CCC[C@@H]1O[C@@H]2C[C@H]3[C@@H]4C[C@H](F)C5=CC(=O)C=C[C@]5(C)[C@@]4(F)[C@@H](O)C[C@]3(C)[C@]2(S[C@H]2CCOC2=O)O1`
Ans: false (0)

Continuing:
Q: For this compound, is measured half-life 40 min or higher? `CCOC(=O)CNC(=O)OCOC(=O)c1ccccc1Nc1cccc(C(F)(F)F)c1`
Ans: false (0)

Q: For this compound, is measured half-life 40 min or higher? `C[C@H](C(=O)OCCn1ccnc1)c1ccc(-c2ccccc2)c(F)c1`
Ans: true (1)

Q: For this compound, is measured half-life 40 min or higher? `CCCCCCCCOC(=O)[C@H](Cc1ccccc1)NC(=O)CN.Cl`
Ans: true (1)

Q: For this compound, is measured half-life 40 min or higher? `CN(C)Cc1ccc(C(=O)OCCOCn2cnc3c(=O)[nH]c(N)nc32)cc1`
Ans: false (0)

Q: For this compound, is measured half-life 40 min or higher? `CN(CC(=O)O)C(=O)[C@@H](N)CC(=O)OCc1ccccc1`
Ans: true (1)

Q: For this compound, is measured half-life 40 min or higher? `N[C@@H](Cc1ccc(O)c(O)c1)C(=O)OCCCCO`
Ans: true (1)

Q: For this compound, is measured half-life 40 min or higher? `CCC1CCN(CC(=O)OCCn2c([N+](=O)[O-])cnc2C)CC1`
Ans: true (1)

Q: For this compound, is measured half-life 40 min or higher? `COc1ccc2c(c1)c(CC(=O)NCCOCCOCCO)c(C)n2C(=O)c1ccc(Cl)cc1`
Ans: true (1)

Data origin: ChEMBL document CHEMBL1821652
